Target: Adrenergic β2 (Homo sapiens)
Construct: Adherent H292 cells were removed from tissue culture flasks; endogenous in cells; host or cells: H292 cells
Sequence (P07550 whole entry): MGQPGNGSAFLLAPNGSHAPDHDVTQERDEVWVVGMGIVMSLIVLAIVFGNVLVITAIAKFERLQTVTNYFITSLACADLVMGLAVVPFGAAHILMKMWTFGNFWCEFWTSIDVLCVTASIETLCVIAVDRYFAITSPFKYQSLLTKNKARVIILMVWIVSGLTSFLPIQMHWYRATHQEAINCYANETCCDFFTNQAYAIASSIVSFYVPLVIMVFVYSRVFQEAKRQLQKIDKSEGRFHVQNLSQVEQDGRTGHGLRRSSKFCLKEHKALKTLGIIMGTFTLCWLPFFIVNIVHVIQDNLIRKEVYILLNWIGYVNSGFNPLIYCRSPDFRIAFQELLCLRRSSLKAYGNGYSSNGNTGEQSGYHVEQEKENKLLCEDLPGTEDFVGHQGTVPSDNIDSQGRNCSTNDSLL
Assay: Adrenergic β2 mediated cAMP production in H292 cells
Format: cell-based
Conditions: Intrinsic Activity as a fraction relative to the maximum activity determined for formoterol
Structures can show the parent of a compound that is named as a salt.
Property label: β2 Int Act

Check out these entries, answers already filled in.
- Compound: "O=C(CCNCCc1ccccc1Cl)N(CCNCCc1ccc(O)c2[nH]c(=O)sc12)C1CCCCC1 [Example 17]"
  Assayed target: "Adrenergic β2 (Homo sapiens)"
  Measured: 0.90
- Compound: "CCCC[C@H](C)N(CCNCCc1ccc(O)c2[nH]c(=O)sc12)C(=O)CCNCCc1ccccc1 [Example 102, bis-trifluoroacetic acid salt]"
  Assayed target: "Adrenergic β2 (Homo sapiens)"
  Measured: 0.23

A: O=C(CCNCCc1cccc(C(F)(F)F)c1)N(CCNCCc1ccc(O)c2[nH]c(=O)sc12)C1CCCCCC1 [Example 82, bis-trifluoroacetic acid salt]
B: O=C(CCNCCc1ccc(Cl)cc1)N(CCNCCc1ccc(O)c2[nH]c(=O)sc12)C1CCC(F)(F)CC1 [Example 48, bis-trifluoroacetic acid salt]
Enquiry: Rank A against B by their β2 Int Act values and give the higher one. Mark your selection by writing its label.
Return: A
(A: 0.86, B: 0.55)
